- ASSAY_SYSTEM: hGPR120 (Homo sapiens, UniProt Q5NUL3)
- Construct: expressed in transfected cells; host or cells: CHO-K1
- Sequence (Q5NUL3 whole entry): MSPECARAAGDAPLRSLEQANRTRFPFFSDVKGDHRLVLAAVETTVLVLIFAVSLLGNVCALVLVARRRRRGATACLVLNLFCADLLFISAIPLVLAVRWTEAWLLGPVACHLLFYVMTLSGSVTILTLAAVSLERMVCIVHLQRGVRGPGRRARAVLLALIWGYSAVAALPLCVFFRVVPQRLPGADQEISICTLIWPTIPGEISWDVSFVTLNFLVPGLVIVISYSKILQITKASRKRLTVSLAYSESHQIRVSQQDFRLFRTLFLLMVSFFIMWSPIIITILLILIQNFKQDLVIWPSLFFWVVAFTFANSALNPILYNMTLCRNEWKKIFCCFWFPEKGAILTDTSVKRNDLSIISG
- ASSAY_NAME: Measurement of activity of GPR120 agonist (cell-based assay), calcium fluorescence
- ASSAY_SETUP: CHO-K1 cells expressing Ga16 and hGPR120; Calcium 5 dye fluorescence; activity class
READOUT_LABEL: EC50

Problem: What measured EC50 goes with `CC(C)Sc1cccc(COc2ccc(CCC(=O)O)cc2F)n1` ?
Solution: < 200 nM

Problem: What measured EC50 goes with O=C(O)C1CC1c1cc(F)c(OCc2cccc(SC3CCCC3)n2)c(F)c1 (stereo not drawn) ?
Solution: < 200 nM

Problem: What measured EC50 goes with O=C(O)C1CC1c1cc(F)c(OCc2cccnc2SCC2CC2)c(F)c1 (single isomer, unassigned) [Example 137] ?
Solution: < 200 nM

Problem: What measured EC50 goes with `CCc1ccc(COc2c(F)cc(CCC(=O)O)cc2F)c(SC(C)C)n1` ?
Solution: 200 to 2000 nM

Problem: What measured EC50 goes with CC(C)Sc1cccc(COc2ccc(CC(C)C(=O)O)cc2Cl)n1 (stereo not drawn) ?
Solution: < 200 nM

Problem: What measured EC50 goes with CC(Cc1cc(F)c(OCc2cccnc2SC2CCCC2)c(F)c1)C(=O)O (stereo not drawn) ?
Solution: < 200 nM

Problem: What measured EC50 goes with O=C(O)C1CC1c1ccc(OCc2cccc(SC3CCC3)n2)c(F)c1 (stereo not drawn) ?
Solution: < 200 nM

Problem: What measured EC50 goes with O=C(O)CC1COc2c1cc(F)c(OCc1cccnc1SC1CCCC1)c2F (stereo not drawn) ?
Solution: < 200 nM

Problem: What measured EC50 goes with CCC(C)Sc1ncccc1COc1c(F)cc(CCC(=O)O)cc1F (stereo not drawn) ?
Solution: < 200 nM

---

Provide the reported pEC50 of each item.
- ASSAY_SYSTEM: hGPR120 (Homo sapiens)
- Construct: expressed in transfected cells; host or cells: CHO-K1
- ASSAY_NAME: Measurement of activity of GPR120 agonist (cell-based assay), calcium fluorescence
- ASSAY_SETUP: CHO-K1 cells expressing Ga16 and hGPR120; Calcium 5 dye fluorescence; activity class
pEC50: −log10 of the molar value.

Problem: What measured pEC50 goes with `O=C(O)CCc1ccc(OCc2cccc(SCC3CC3)n2)cc1F` ?
Solution: 5.70 to 6.70

Problem: What measured pEC50 goes with O=C(O)C1CC1c1ccc(OCc2cccc(SCC3CC3)n2)c(F)c1 (centres unmarked) ?
Solution: > 6.70

Problem: What measured pEC50 goes with `O=C(O)CCc1ccc(OCc2cccc(SCC3CC3)n2)cc1` ?
Solution: 5.70 to 6.70

Problem: What measured pEC50 goes with CC(C)Sc1cccc(COc2ccc3c(c2)OCC3CC(=O)O)n1 (centres unmarked) ?
Solution: 5.70 to 6.70

Problem: What measured pEC50 goes with CC(C)Sc1ncccc1COc1c(F)cc(CC2CC2C(=O)O)cc1F (centres unmarked) ?
Solution: 5.70 to 6.70

---

- ASSAY_SYSTEM: hGPR120 (Homo sapiens, UniProt Q5NUL3)
- Construct: expressed in transfected cells; host or cells: CHO-K1
- ASSAY_NAME: Measurement of activity of GPR120 agonist (cell-based assay), calcium fluorescence
- ASSAY_SETUP: CHO-K1 cells expressing Ga16 and hGPR120; Calcium 5 dye fluorescence; activity class
pEC50: −log10 of the molar value.
READOUT_LABEL: pEC50

Problem: What measured pEC50 goes with `O=C(O)CCc1ccc(OCc2cccnc2SC2CCCC2)c(F)c1` ?
Solution: > 6.70

Problem: What measured pEC50 goes with `O=C(O)CCc1cc(F)c(OCc2cccnc2SC2CCC2)c(F)c1` ?
Solution: > 6.70

Problem: What measured pEC50 goes with `O=C(O)CCc1cc(F)c(OCc2cccnc2Sc2ccccc2)c(F)c1` ?
Solution: 5.70 to 6.70

Problem: What measured pEC50 goes with `COc1cc(CCC(=O)O)ccc1OCc1cccc(SC2CCCC2)n1` ?
Solution: 5.70 to 6.70

Problem: What measured pEC50 goes with O=C(O)C1CC1c1ccc(OCc2cccnc2SC2CCCC2)c(Cl)c1 (stereo not drawn) ?
Solution: > 6.70

Problem: What measured pEC50 goes with CC(C)Sc1ncccc1COc1ccc2c(c1)OCC2CC(=O)O (stereo not drawn) ?
Solution: 5.70 to 6.70

Problem: What measured pEC50 goes with O=C(O)C1CC1c1cc(F)c(OCc2cccnc2SCC2CC2)c(F)c1 (stereo not drawn) [Example 63] ?
Solution: > 6.70

Problem: What measured pEC50 goes with `CC(C)CSc1ncccc1COc1c(F)cc(CCC(=O)O)cc1F` ?
Solution: > 6.70

Problem: What measured pEC50 goes with `O=C(O)CCc1ccc(OCc2cccc(SC3CCCC3)n2)c(F)c1` ?
Solution: > 6.70

---

- ASSAY_SYSTEM: hGPR120 (Homo sapiens)
- Construct: expressed in transfected cells; host or cells: CHO-K1
- ASSAY_NAME: Measurement of activity of GPR120 agonist (cell-based assay), calcium fluorescence
- ASSAY_SETUP: CHO-K1 cells expressing Ga16 and hGPR120; Calcium 5 dye fluorescence; activity class
pEC50: −log10 of the molar value.
READOUT_LABEL: pEC50

Problem: What pEC50 appears in the records for this compound with hGPR120 (Homo sapiens)? O=C(O)C1CC1c1cc(F)c(OCc2cccc(SC3CCC3)n2)c(F)c1 (stereo not shown) [Example 155]
Solution: > 6.70

Problem: What pEC50 appears in the records for this compound with hGPR120 (Homo sapiens)? `Cc1cnc(SC(C)C)c(COc2ccc(CCC(=O)O)cc2)c1`
Solution: > 6.70

Problem: What pEC50 appears in the records for this compound with hGPR120 (Homo sapiens)? O=C(O)C1CC1c1cc(F)c(OCc2cccc(SC3CCC3)n2)c(F)c1 (stereo not shown) [Example 75]
Solution: > 6.70

Problem: What pEC50 appears in the records for this compound with hGPR120 (Homo sapiens)? `CC(C)Sc1nccnc1COc1c(F)cc(CCC(=O)O)cc1F`
Solution: 5.70 to 6.70

Problem: What pEC50 appears in the records for this compound with hGPR120 (Homo sapiens)? `Cc1ccc(COc2ccc(CCC(=O)O)cc2)c(SC2CCCC2)n1`
Solution: 5.70 to 6.70

Problem: What pEC50 appears in the records for this compound with hGPR120 (Homo sapiens)? O=C(O)C1CC1c1ccc(OCc2cccc(SC3CCCC3)n2)c(Cl)c1 (stereo not shown)
Solution: > 6.70

Problem: What pEC50 appears in the records for this compound with hGPR120 (Homo sapiens)? `CC(C)Sc1ncccc1COc1ccc(CCC(=O)O)cc1`
Solution: > 6.70

Problem: What pEC50 appears in the records for this compound with hGPR120 (Homo sapiens)? `O=C(O)CCc1cc(F)c(OCc2cccnc2SCC2CC2)c(F)c1`
Solution: > 6.70

Problem: What pEC50 appears in the records for this compound with hGPR120 (Homo sapiens)? CC(Cc1cc(F)c(OCc2cccnc2SCC2CC2)c(F)c1)C(=O)O (stereo not shown)
Solution: > 6.70

Problem: What pEC50 appears in the records for this compound with hGPR120 (Homo sapiens)? `O=C(O)CCc1ccc(OCc2cccc(SC3CCC3)n2)c(Cl)c1`
Solution: > 6.70

Problem: What pEC50 appears in the records for this compound with hGPR120 (Homo sapiens)? O=C(O)C1CC1Cc1cc(F)c(OCc2cccc(SC3CCC3)n2)c(F)c1 (stereo not shown)
Solution: > 6.70

Problem: What pEC50 appears in the records for this compound with hGPR120 (Homo sapiens)? `O=C(O)CCc1cc(F)c(OCc2cccc(SC3CCCCC3)n2)c(F)c1`
Solution: > 6.70

Problem: What pEC50 appears in the records for this compound with hGPR120 (Homo sapiens)? O=C(O)C1CC1c1ccc(OCc2cccnc2SC2CCCC2)c(F)c1 (single isomer, unassigned) [Example 164]
Solution: > 6.70

Problem: What pEC50 appears in the records for this compound with hGPR120 (Homo sapiens)? `Cc1ncc(COc2c(F)cc(CCC(=O)O)cc2F)c(SC(C)C)n1`
Solution: 5.70 to 6.70

Problem: What pEC50 appears in the records for this compound with hGPR120 (Homo sapiens)? CCCSc1ncccc1COc1ccc(C2CC2C(=O)O)cc1F (single isomer, unassigned) [Example 163]
Solution: > 6.70

Problem: What pEC50 appears in the records for this compound with hGPR120 (Homo sapiens)? O=C(O)C1CC1Cc1cc(F)c(OCc2cccc(SC3CCCC3)n2)c(F)c1 (stereo not shown)
Solution: 5.70 to 6.70

---

- ASSAY_SYSTEM: hGPR120 (Homo sapiens, UniProt Q5NUL3)
- Construct: expressed in transfected cells; host or cells: CHO-K1
- ASSAY_NAME: Measurement of activity of GPR120 agonist (cell-based assay), calcium fluorescence
- ASSAY_SETUP: CHO-K1 cells expressing Ga16 and hGPR120; Calcium 5 dye fluorescence; activity class
pEC50: −log10 of the molar value.
READOUT_LABEL: pEC50

Problem: What measured pEC50 goes with CC(C)(C)CSc1ncccc1COc1c(F)cc(CCC(=O)O)cc1F [Example 28] ?
Solution: 5.70 to 6.70

Problem: What measured pEC50 goes with O=C(O)C[C@H]1COc2cc(OCc3cccnc3SC3CCCC3)ccc21 [Example 82] ?
Solution: > 6.70

Problem: What measured pEC50 goes with O=C(O)C1CC1c1ccc(OCc2cccnc2SC2CCC2)c(Cl)c1 (single isomer, unassigned) [Example 124] ?
Solution: 5.70 to 6.70

Problem: What measured pEC50 goes with O=C(O)CCc1ccc(OCc2cccnc2SC2CCC2)cc1 [Example 180] ?
Solution: 5.70 to 6.70

Problem: What measured pEC50 goes with CC(C)Sc1cccc(COc2ccc(CC(C)C(=O)O)cc2F)n1 (centres unmarked) [Example 52] ?
Solution: > 6.70

The measured values listed here are drawn from patent US9447044B2.
